- System: rodent lifetime carcinogenesis bioassay, tumor incidence TD50
- test-name: carcinogenic potency in animals, long-term in vivo studies, CPDB compilation (AID 1745844)
- cond: hamster; strain Syrian Golden; females; in drinking water; site: liver; lesion: several types; types named in the paper; dosed 102 weeks; study length 102 weeks
measured-property: TD50

Given the compound CN(N)C=O , write its reported TD50.
11.3 mg/kg/day

----------
- Test system: rodent lifetime carcinogenesis bioassay, tumor incidence TD50
- test-name: carcinogenic potency in animals, long-term in vivo studies, CPDB compilation (AID 1745844)
- cond: mouse; strain B6C3F1; females; in feed; site: duodenum; lesion: adenocarcinoma; dosed 104 weeks; study length 104 weeks
measured-property: TD50

Give TD50 for O=C1c2ccccc2C(=O)N1SC(Cl)(Cl)Cl tested on rodent lifetime carcinogenesis bioassay, tumor incidence TD50.
2090 mg/kg/day

----------
- System: rodent lifetime carcinogenesis bioassay, tumor incidence TD50
- test-name: carcinogenic potency in animals, long-term in vivo studies, CPDB compilation (AID 1745844)
- cond: mouse; strain B6C3F1; females; by gavage; site: ovary; lesion: granulosa-cell tumor; dosed 103 weeks; study length 104 weeks
measured-property: TD50

Identify TD50 associated with the compound C=CC1CC=CCC1 (stereo unspecified)
361 mg/kg/day

----------
- Test system: rodent lifetime carcinogenesis bioassay, tumor incidence TD50
- test-name: carcinogenic potency in animals, long-term in vivo studies, CPDB compilation (AID 1745844)
- cond: rat; strain Fischer 344; females; inhaled; site: mammary gland; lesion: adenocarcinoma; dosed 104 weeks; study length 104 weeks
measured-property: TD50

Tell us which TD50 value is on record for C=CCl
264 mg/kg/day

----------
- System: rodent lifetime carcinogenesis bioassay, tumor incidence TD50
- test-name: carcinogenic potency in animals, long-term in vivo studies, CPDB compilation (AID 1745844)
- cond: rat; strain Sprague-Dawley albino; females; in feed; site: any site (literature study); lesion: several types; types named in the paper; dosed 46 weeks; study length 68 weeks
measured-property: TD50

// fetch TD50 given entry O=[N+]([O-])c1ccc(-c2cscn2)o1
7.68 mg/kg/day

----------
- Test system: rodent lifetime carcinogenesis bioassay, tumor incidence TD50
- test-name: carcinogenic potency in animals, long-term in vivo studies, CPDB compilation (AID 1745844)
- cond: mouse; strain B6C3F1; females; by gavage; site: liver + multiple organs + spleen; lesion: malignant lymphoma, mixed type; dosed 102 weeks; study length 103 weeks
measured-property: TD50 (mg/kg/day)
Give bare numbers, in mg/kg/day.

Jot down TD50 (rodent lifetime carcinogenesis bioassay, tumor incidence TD50) of CC(C)=CCl .
229

----------
- System: rodent lifetime carcinogenesis bioassay, tumor incidence TD50
- test-name: carcinogenic potency in animals, long-term in vivo studies, CPDB compilation (AID 1745844)
- cond: rat; strain Wistar; females; in drinking water; site: adrenal gland; lesion: cortical adenoma; dosed 104 weeks; study length 104 weeks
measured-property: TD50

Return TD50 for the following compound: O=C1OC(O)C(C(Cl)Cl)=C1Cl (stereo unspecified)
10.6 mg/kg/day

----------
- System: rodent lifetime carcinogenesis bioassay, tumor incidence TD50
- test-name: carcinogenic potency in animals, long-term in vivo studies, CPDB compilation (AID 1745844)
- cond: hamster; strain Syrian Golden; males; inhaled; site: larynx; lesion: several types; types named in the paper; dosed 52 weeks; study length 81 weeks
measured-property: TD50

Supply recorded TD50 for CC=O here.
461 mg/kg/day

----------
- Test system: rodent lifetime carcinogenesis bioassay, tumor incidence TD50
- test-name: carcinogenic potency in animals, long-term in vivo studies, CPDB compilation (AID 1745844)
- cond: mouse; strain CDF1; females; in feed; site: liver; lesion: several types; types named in the paper; dosed 67 weeks; study length 67 weeks
measured-property: TD50

Return TD50 for the following compound: Cc1cccn2c1nc1ccc(N)nc12
5.08 mg/kg/day

----------
- System: rodent lifetime carcinogenesis bioassay, tumor incidence TD50
- test-name: carcinogenic potency in animals, long-term in vivo studies, CPDB compilation (AID 1745844)
- cond: mouse; strain B6C3F1; males; by gavage; site: forestomach; lesion: carcinoma; dosed 104 weeks; study length 107 weeks
measured-property: TD50

Specify TD50 for ClCc1ccccc1 and stop.
221 mg/kg/day

----------
- Tested on: rodent lifetime carcinogenesis bioassay, tumor incidence TD50
- test-name: carcinogenic potency in animals, long-term in vivo studies, CPDB compilation (AID 1745844)
- cond: mouse; strain Charles River CD1; females; in feed; site: any site (literature study); lesion: malignant tumor; dosed 104 weeks; study length 104 weeks
Active and inactive are the calls of the source. No rule for the calls is given here.
measured-property: TD50

Annotate the molecule O=C(O)C1=NN(c2ccc(S(=O)(=O)O)cc2)C(=O)C1N=Nc1ccc(S(=O)(=O)O)cc1 (stereo unspecified) with its measured TD50.
1560 mg/kg/day (inactive)

----------
- Tested on: rodent lifetime carcinogenesis bioassay, tumor incidence TD50
- test-name: carcinogenic potency in animals, long-term in vivo studies, CPDB compilation (AID 1745844)
- cond: rat; strain MRC; females; in drinking water; site: any site (literature study); lesion: several types; types named in the paper; dosed 75 weeks; study length 104 weeks
The source made the active and inactive calls. The rule behind the calls is not given here.
measured-property: TD50

Some compounds with recorded TD50:
O=NN1CCC[C@H]1C(=O)O : 6.69 mg/kg/day (inactive)
C1CNCCN1 : 11.2 mg/kg/day
O=NN1C[C@H](O)C[C@H]1C(=O)O : 3.84 mg/kg/day (inactive)
C1CCCNCCC1 : 15.8 mg/kg/day

For each listed entry, give its TD50.
1. C1CCNCC1
2. O=NN1CCCCC1C(=O)O (stereo unspecified)

1: 63.3 mg/kg/day; 2: 4.99 mg/kg/day (inactive)

----------
- System: rodent lifetime carcinogenesis bioassay, tumor incidence TD50
- test-name: carcinogenic potency in animals, long-term in vivo studies, CPDB compilation (AID 1745844)
- cond: rat; strain Sprague-Dawley; females; i.p.; site: any site (literature study); lesion: several types; types named in the paper; dosed 52 weeks; study length 83 weeks
measured-property: TD50 (mg/kg/day)
Answers are plain numbers, in mg/kg/day.

CC(COc1ccccc1)N(CCCl)Cc1ccccc1 (configuration not stated) : 1.34

--- query ---
Supply reported TD50 belonging to this molecule: CC[C@H]1CN2CCc3cc(OC)c(OC)cc3[C@@H]2C[C@@H]1C[C@H]1NCCc2cc(OC)c(OC)cc21
0.235

----------
- Tested on: rodent lifetime carcinogenesis bioassay, tumor incidence TD50
- test-name: carcinogenic potency in animals, long-term in vivo studies, CPDB compilation (AID 1745844)
- cond: rat; strain Fischer 344; males; inhaled; site: testis; lesion: interstitial-cell adenoma, bilateral; dosed 104 weeks; study length 104 weeks
measured-property: TD50 (mg/kg/day)
Answers are plain numbers, in mg/kg/day.

State its TD50: CCc1ccccc1
23.1

----------
- System: rodent lifetime carcinogenesis bioassay, tumor incidence TD50
- test-name: carcinogenic potency in animals, long-term in vivo studies, CPDB compilation (AID 1745844)
- cond: mouse; strain B6C3F1; females; in feed; site: liver; lesion: neoplastic nodule; dosed 78 weeks; study length 78 weeks
measured-property: TD50

Return reported TD50. Input compound: Brc1cc(Br)c(-c2c(Br)c(Br)c(Br)c(Br)c2Br)c(Br)c1Br
4.89 mg/kg/day

----------
- Tested on: rodent lifetime carcinogenesis bioassay, tumor incidence TD50
- test-name: carcinogenic potency in animals, long-term in vivo studies, CPDB compilation (AID 1745844)
- cond: rat; strain MRC; males; in drinking water; site: any site (literature study); lesion: several types; types named in the paper; dosed 38 weeks; study length 95 weeks
measured-property: TD50 (mg/kg/day)
One number for each entry, in mg/kg/day.

Fill in reported TD50 for this entry: O=NN1CCSCC1
2.29

----------
- Test system: rodent lifetime carcinogenesis bioassay, tumor incidence TD50
- test-name: carcinogenic potency in animals, long-term in vivo studies, CPDB compilation (AID 1745844)
- cond: rat; strain Fischer 344; females; by gavage; site: all sites + liver; lesion: mononuclear-cell leukemia + hemangiosarcoma + hepatocellular adenoma; dosed 102 weeks; study length 104 weeks
measured-property: TD50 (mg/kg/day)
One number for each entry, in mg/kg/day.

Report TD50 for C=C1C/C(=C/C)C(=O)O[C@@H]2CCN3CC=C(COC(=O)[C@@]1(O)CO)[C@H]23
0.143

----------
- Test system: rodent lifetime carcinogenesis bioassay, tumor incidence TD50
- test-name: carcinogenic potency in animals, long-term in vivo studies, CPDB compilation (AID 1745844)
- cond: rat; strain Wistar albino; males; in feed; site: pituitary gland; lesion: adenoma; dosed 104 weeks; study length 104 weeks
measured-property: TD50 (mg/kg/day)
Numbers only, in mg/kg/day.

Supply measured TD50 of CC(C)(C)NC[C@H](O)COc1cccc2c1CCCC2=O in your reply.
71.9

----------
- Test system: rodent lifetime carcinogenesis bioassay, tumor incidence TD50
- test-name: carcinogenic potency in animals, long-term in vivo studies, CPDB compilation (AID 1745844)
- cond: rat; strain Fischer 344; females; in feed; site: adrenal gland; lesion: cortical adenoma; dosed 77 weeks; study length 77 weeks
Active and inactive are the calls of the source. How the calls were made is not given here.
measured-property: TD50

Specify measured TD50 for O=c1c(O)c(-c2ccc(O)c(O)c2)oc2cc(O)cc(O)c12 .
118 mg/kg/day (inactive)
